Reported pEC50 values for a set of compounds
- STUDY TARGET: F508delCFTR (Homo sapiens, UniProt P13569, DEL508-508)
- Construct: expressed in transfected cells; host or cells: CFBE41o- (human lung derived epithelial cell line), doxycycline-inducible expression
- Sequence (P13569 with tags, fused parts or gaps DEL508-508): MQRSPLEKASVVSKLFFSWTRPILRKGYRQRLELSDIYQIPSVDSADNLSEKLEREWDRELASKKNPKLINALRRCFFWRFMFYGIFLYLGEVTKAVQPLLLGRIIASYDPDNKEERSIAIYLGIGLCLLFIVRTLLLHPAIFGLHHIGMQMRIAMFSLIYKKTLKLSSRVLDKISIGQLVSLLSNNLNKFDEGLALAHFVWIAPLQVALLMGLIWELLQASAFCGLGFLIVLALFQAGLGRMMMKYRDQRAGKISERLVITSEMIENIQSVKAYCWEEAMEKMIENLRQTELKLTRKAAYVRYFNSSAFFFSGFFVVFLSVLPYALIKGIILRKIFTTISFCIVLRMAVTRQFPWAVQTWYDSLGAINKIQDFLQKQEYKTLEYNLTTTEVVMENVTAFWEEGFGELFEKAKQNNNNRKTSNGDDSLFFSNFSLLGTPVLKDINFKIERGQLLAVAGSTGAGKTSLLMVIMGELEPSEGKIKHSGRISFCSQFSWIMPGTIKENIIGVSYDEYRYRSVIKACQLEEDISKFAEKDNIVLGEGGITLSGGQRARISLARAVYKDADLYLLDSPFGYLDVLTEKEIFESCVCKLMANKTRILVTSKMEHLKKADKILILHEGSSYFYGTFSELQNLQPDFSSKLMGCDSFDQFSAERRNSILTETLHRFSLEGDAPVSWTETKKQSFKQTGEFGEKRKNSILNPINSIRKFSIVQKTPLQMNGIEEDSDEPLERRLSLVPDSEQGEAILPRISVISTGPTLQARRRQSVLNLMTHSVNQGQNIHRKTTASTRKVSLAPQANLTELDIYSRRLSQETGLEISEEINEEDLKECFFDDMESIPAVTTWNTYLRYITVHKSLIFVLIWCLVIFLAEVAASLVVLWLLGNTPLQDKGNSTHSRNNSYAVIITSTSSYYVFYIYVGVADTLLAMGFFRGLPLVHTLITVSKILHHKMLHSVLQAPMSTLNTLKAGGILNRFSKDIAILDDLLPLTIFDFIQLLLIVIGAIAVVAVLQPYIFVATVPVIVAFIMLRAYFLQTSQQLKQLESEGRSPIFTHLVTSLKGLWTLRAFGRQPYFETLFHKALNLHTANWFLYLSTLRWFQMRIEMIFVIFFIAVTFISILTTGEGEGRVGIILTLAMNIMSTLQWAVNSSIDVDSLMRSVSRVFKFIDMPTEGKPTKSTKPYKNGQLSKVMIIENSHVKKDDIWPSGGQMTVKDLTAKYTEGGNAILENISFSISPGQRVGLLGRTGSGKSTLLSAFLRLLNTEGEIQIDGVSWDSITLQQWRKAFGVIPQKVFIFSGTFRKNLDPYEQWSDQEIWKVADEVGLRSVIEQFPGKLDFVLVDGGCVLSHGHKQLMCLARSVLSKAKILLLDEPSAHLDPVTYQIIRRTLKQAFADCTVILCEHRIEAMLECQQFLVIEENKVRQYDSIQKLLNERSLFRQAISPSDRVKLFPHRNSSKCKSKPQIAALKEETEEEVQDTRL
- ASSAY REMARKS: Cell Surface Expression-Horse Radish Peroxidase (CSE-HRP) assay
- Type: cell-based
- SETUP CONDITIONS: CFBE41o-F508delCFTR-HRP cells; with co-corrector (2 μM of 3-[(2R,4R)-4-({[1-(2,2-difluoro-1,3-benzodioxol-5-yl)cyclopropyl]carbonyl}amino)-7-methoxy-3,4-dihydro-2H-chromen-2-yl]benzoic acid); read-out: EC50 (with co-corrector)
pEC50: −log10 of the molar value.
MEASURED ATTRIBUTE: pEC50

{"COMPOUND": "COc1ncc(C(C)(C)C)cc1CO[C@H]1[C@H](C(C)(C)C)[C@@H](C(=O)O)N(C(=O)C2CCCCC2)[C@H]1c1ccccc1", "OBSERVED": "> 6.00"}
{"COMPOUND": "COc1ncc(-c2ccc(C)cc2F)cc1CO[C@H]1[C@H](C(C)(C)C)[C@@H](C(=O)O)N(C(=O)OC(C)C)[C@H]1c1ccccc1", "OBSERVED": "> 6.00"}
{"COMPOUND": "COc1ccc(C2(C)CCC2)cc1CO[C@H]1[C@H](C(C)(C)C)[C@@H](C(=O)O)N(C(=O)[C@@H]2CCCCO2)[C@H]1c1ccccc1C", "OBSERVED": "> 6.00"}
{"COMPOUND": "COc1ccc(Cl)cc1COC1[C@@H](c2ccccc2)N(C(=O)OC(C)C)[C@@H](C(=O)O)[C@@H]1C(C)(C)C (mixture of isomers)", "OBSERVED": "5.00 to 6.00"}
{"COMPOUND": "C=CCOC(=O)N1[C@H](C(=O)O)[C@@H](C(C)(C)C)[C@H](OCc2cc(C(F)(F)F)cnc2OC)[C@@H]1c1ccccc1", "OBSERVED": "5.00 to 6.00"}
{"COMPOUND": "CCc1ccccc1[C@H]1[C@@H](OCc2cc3ccccc3nc2OC)[C@H](C(C)(C)C)[C@@H](C(=O)O)N1C(=O)[C@@H]1CCCCO1", "OBSERVED": "> 6.00"}
{"COMPOUND": "COc1ncc(C(F)(F)F)cc1CO[C@H]1[C@H](C(C)(C)C)[C@@H](C(=O)O)N(C(=O)[C@H]2CCCCO2)[C@H]1c1ccccc1C(C)C", "OBSERVED": "5.00 to 6.00"}
{"COMPOUND": "COc1ncc(C(F)(F)F)cc1CO[C@H]1[C@H](C(C)(C)C)[C@@H](C(=O)O)N(C(=O)[C@@H]2CCCO2)[C@H]1c1cccc(C(C)(C)C)c1", "OBSERVED": "> 6.00"}
